Where do the numbers come from? From ChEMBL document CHEMBL1201862.

Tested on: SR
Assay: NCI tumour cell line growth inhibition, 48 h
The source made the active and inactive calls. No stated cut-off is given here; in the data, active = GI50 up to about 1.1 µM and inactive = higher.
Possible outcomes: label 1 for active, label 0 for inactive

>>> classification("C#CCSc1nc(-c2ccco2)n[nH]1")
"label 0"
>>> classification("CN(C)CCCNC(=O)N/N=C/c1ccccn1")
"label 0"
>>> classification("COC1CCC(O)C(CO)O1 (stereo unspecified)")
"label 0"
>>> classification("O=C(Nc1ccc(Cl)cc1)c1cc(S(=O)(=O)N2CCNNC2=O)c(S)cc1Cl")
"label 0"
>>> classification("Clc1ccc(-c2nnc(C34CC5CC(CC(C5)C3)C4)o2)cc1")
"label 0"
>>> classification("CC(=O)NC1C(=O)CC(c2ccccc2)N(C)C1c1ccccc1 (stereo unspecified)")
"label 0"
>>> classification("CC(C)(C)OC(=O)N1CC(COS(C)(=O)=O)c2ccc(O)cc21 (stereo unspecified)")
"label 1"
>>> classification("CCCCCCCCCCCCCCCCOCC(COP(=O)([O-])OCC[n+]1ccc(N(C)C)cc1)OCC (stereo unspecified)")
"label 0"
>>> classification("O=C1C(=Cc2cccc(O)c2)N=C(c2ccccc2)N1n1c(-c2ccccc2)nc2ccccc2c1=O")
"label 0"
>>> classification("Nc1ccc2c(c1)CN1C(=O)c3ccccc3C1=N2")
"label 0"
>>> classification("CNC(=S)N(C1CCCCC1)C1CCCCC1")
"label 0"
